# method.notes: Kinematic viscosity of surfactant base formulation with added agent (calibrated Cannon viscometers)
# Assay type: physicochemical
# measurement.parameters: 2% agent in base formulation, 40 C
# Experimental: Referring to Tables 1 and 2, the base formulations were made by mixing 1.6% perfume, 24% sodium undecyl sulfate (CAS#1072-24-8) active, 6% lauramidopropyl betaine (CAS#4292-10-8) active and 60.4% deionized water which leaves 8% unfilled for the addition of a viscosity reducing agent (the balance being filled in by distilled water). […] Viscosity values were calculated based on the equation: […]
Assignment: determine reported Kinematic viscosity at 40 C., 2% oil for the given molecules.
Numbers only, in cSt.

{"molecule": "CCC(=O)OC1CC2CC1C1CC=CC21 (stereo not drawn)", "numeric.readout": 404.2}
{"molecule": "C=C(C)[C@H]1CC=C(C)CC1 [Limonene]", "numeric.readout": 366.5}

Provide Kinematic viscosity at 40 C., 2% oil values for the following items, in order.
1. CC1=CCC(C(C)C)=CC1
2. CCC(=O)O[C@@H]1C[C@H]2CC[C@]1(C)C2(C)C (racemic) [Iso Bornyl Propionate]
3. CC1=CC=C(C(C)C)CC1
4. CCCCOC(=O)c1ccccc1O [Butyl Salicylate]

1: 238.0; 2: 463.1; 3: 324.4; 4: 367.9

###

# method.notes: NMR self-diffusion coefficients and specific diffusivity ratio
# Type: physicochemical
# measurement.parameters: diffusion coefficient of the viscosity reducing agent/diffusion coefficient of the surfactant; 4% additive
Where a name gives a salt, the structure may show the parent alone.
Entry flag: label 1 if Specific diffusivity ratio measured at 4% reaches 1; label 0 if it does not.

Check out these entries, answers already filled in.
{"compound": "COc1ccc(C=O)cc1 [Anisic aldehyde]", "assigned.class": "label 1"}
{"compound": "C=C(C)[C@H]1CC=C(C)CC1 [Limonene]", "assigned.class": "label 0"}
{"compound": "CCCCCC1(C)CCC(C)(C)C1=O (stereo not shown) [Veloutone]", "assigned.class": "label 0"}
{"compound": "CC12CCC(CC1)C(C)(C)O2 [Eucalyptol]", "assigned.class": "label 1"}
{"compound": "CCCCCCCCCCCCCC(=O)OC(C)C [Iso Propyl Myristate]", "assigned.class": "label 0"}
{"compound": "CCOC(=O)CC(O)(CC(=O)OCC)C(=O)OCC [Triethyl Citrate]", "assigned.class": "label 1"}
{"compound": "CC(C)=CCC/C(C)=C/COC(=O)Cc1ccccc1 [Geranyl Phenyl Acetate]", "assigned.class": "label 0"}
{"compound": "CC(=O)CCc1ccc(O)cc1 [Raspberry Ketone]", "assigned.class": "label 1"}

Now let's try a different one.
# check: Specific diffusivity ratio measured at 4% of C=CC(C)(CCC=C(C)C)OC(=O)C(C)C (stereo not shown) [Linalyl Iso Butyrate] is greater than or equal to 1 label 0

###

Assignment: determine reported Kinematic viscosity at 40 C., 2% oil for the given compounds.
# method.notes: Kinematic viscosity of surfactant base formulation with added agent (calibrated Cannon viscometers)
# Type: physicochemical
# measurement.parameters: 2% agent in base formulation, 40 C
Where a name gives a salt, the structure may show the parent alone.

{"compound": "CCO", "Kinematic viscosity at 40 C., 2% oil": "205.6 cSt"}
{"compound": "CC(C)=CCC/C(C)=C/COC(=O)Cc1ccccc1 [Geranyl Phenyl Acetate]", "Kinematic viscosity at 40 C., 2% oil": "224.0 cSt"}
{"compound": "CCOC(=O)CC(O)(CC(=O)OCC)C(=O)OCC [Triethyl Citrate]", "Kinematic viscosity at 40 C., 2% oil": "269.4 cSt"}
{"compound": "CCC(CC(C)CC)=NO (stereo not shown)", "Kinematic viscosity at 40 C., 2% oil": "246.3 cSt"}
{"compound": "CC(C)CC=C(C=O)C(C)C", "Kinematic viscosity at 40 C., 2% oil": "332.3 cSt"}

Provide Kinematic viscosity at 40 C., 2% oil values for the following items, in order.
1. CCCCCCCCCCCCCC(=O)OC(C)C [Iso Propyl Myristate]
2. CC(CC=O)CCCC(C)(C)O (stereo not shown) [Hydroxycitronellal]
3. CC(C)COC(=O)c1ccccc1O [Iso Butyl Salicylate]
4. COC(C)(C)C1CC=C(C)CC1 (stereo not shown)
5. CC(C)CCOC(=O)c1ccccc1O [Isoamyl Salicylate]

1. 234.2 cSt
2. 310.8 cSt
3. 408.7 cSt
4. 552.2 cSt
5. 460.3 cSt

###

Assignment: determine reported Kinematic viscosity at 40 C., 8% oil for the given compounds.
# method.notes: Kinematic viscosity of surfactant base formulation with added agent (calibrated Cannon viscometers)
# Type: physicochemical
# measurement.parameters: 8% agent in base formulation, 40 C
Counter-ions that a name gives are not always drawn.

{"compound": "CCCCCCCCCCCCCC(=O)OC(C)C [Iso Propyl Myristate]", "result": "45.0 cSt"}

Provide Kinematic viscosity at 40 C., 8% oil values for the following items, in order.
1. C=C(C)[C@H]1CC=C(C)CC1 [Dipentene]
2. CC1=CC=C(C(C)C)CC1
3. C=CC(C)(CCC=C(C)C)OC(=O)C(C)C (stereo not drawn) [Linalyl Iso Butyrate]
4. CCOC(=O)CC(O)(CC(=O)OCC)C(=O)OCC [Triethyl Citrate]
5. CC(CC=O)CCCC(C)(C)O (stereo not drawn) [Hydroxycitronellal]
6. CCCCCC1(C)CCC(C)(C)C1=O (stereo not drawn)

1. 42.6 cSt
2. 46.7 cSt
3. 39.9 cSt
4. 40.5 cSt
5. 34.1 cSt
6. 47.3 cSt

Provide Kinematic viscosity at 40 C., 8% oil values for the following items, in order.
1. C=C(C)[C@H]1CC=C(C)CC1 [Limonene]
2. CCO
3. CC(C)=CCC/C(C)=C/COC(=O)Cc1ccccc1 [Geranyl Phenyl Acetate]
4. CC(=O)CCc1ccc(O)cc1
5. CCCCCC(=O)OCC(C)C [Isobutyl Hexanoate]

["86.4 cSt", "29.2 cSt", "36.6 cSt", "33.0 cSt", "109.4 cSt"]

###

# method.notes: NMR self-diffusion coefficients and specific diffusivity ratio
# Assay type: physicochemical
# measurement.parameters: surfactant self-diffusion
Where a name gives a salt, the structure may show the parent alone.
experimental.readout: Diffusion Coefficient (m^2/s) surfactant at 4% additive
Record the result as number plus unit.

Consider the reported Diffusion Coefficient (m^2/s) surfactant at 4% additive for these compounds:
{"compound": "CC(=O)CCc1ccc(O)cc1", "result": "9.5404E−12 m^2/s"}
{"compound": "CCCCCC1(C)CCC(C)(C)C1=O (stereo not shown)", "result": "2.3854E−12 m^2/s"}
{"compound": "CCCCCCCCCCCCCC(=O)OC(C)C [Iso Propyl Myristate]", "result": "2.1874E−12 m^2/s"}
{"compound": "CC12CCC(CC1)C(C)(C)O2", "result": "1.2262E−11 m^2/s"}
{"compound": "CCCCCCCCCCCCCCCC", "result": "4.1943E−12 m^2/s"}

Provide Diffusion Coefficient (m^2/s) surfactant at 4% additive values for the following items, in order.
1. C=CC(C)(CCC=C(C)C)OC(=O)C(C)C (stereo not shown) [Linalyl Iso Butyrate]
2. CC(C)=CCC/C(C)=C/COC(=O)Cc1ccccc1 [Geranyl Phenyl Acetate]
3. COc1ccc(C=O)cc1

1. 2.5217E−12 m^2/s
2. 3.6554E−12 m^2/s
3. 1.8945E−11 m^2/s

Provide Diffusion Coefficient (m^2/s) surfactant at 4% additive values for the following items, in order.
1. C=C(C)[C@H]1CC=C(C)CC1
2. CCOC(=O)CC(O)(CC(=O)OCC)C(=O)OCC [Triethyl Citrate]

1. 2.4338E−12 m^2/s
2. 1.0196E−11 m^2/s

###

# method.notes: SAXS correlation length of the micelles
# Assay type: physicochemical
# measurement.parameters: 2% oil; control 51 A
Counter-ions that a name gives are not always drawn.
experimental.readout: Change in correlation length compared to control (%)
Numbers only, in %.

Consider the reported Change in correlation length compared to control for these molecules:
{"molecule": "C=C(C)[C@H]1CC=C(C)CC1", "numeric.readout": 11.8}
{"molecule": "CC(C)=CCC/C(C)=C/COC(=O)Cc1ccccc1 [Geranyl Phenyl Acetate]", "numeric.readout": 7.8}
{"molecule": "C=CC(C)(CCC=C(C)C)OC(=O)C(C)C (stereo not shown) [Linalyl Iso Butyrate]", "numeric.readout": 9.8}
{"molecule": "OCC(O)CO", "numeric.readout": 0.0}
{"molecule": "CCCCCCCCCCCCCCCC", "numeric.readout": 15.7}
{"molecule": "CCCCCC1(C)CCC(C)(C)C1=O (stereo not shown)", "numeric.readout": 7.8}
{"molecule": "CCOC(=O)CC(O)(CC(=O)OCC)C(=O)OCC [Triethyl Citrate]", "numeric.readout": "−2.0"}
{"molecule": "COc1ccc(C=O)cc1", "numeric.readout": 0.0}

Provide Change in correlation length compared to control values for the following items, in order.
1. CC(=O)CCc1ccc(O)cc1
2. CCO

1: −2.0; 2: 0.0
